Tested on: momingglory (Ipomoea hederacea)
Assay: Test B pre-/postemergence
Assay type: in vivo
Conditions: Rate 500 g/ha, Preemergence
Plant response rating, Morningglory listing for selected compounds.
The response must contain the number and no unit.

For `Cc1cnc(-c2ccc(Cl)cc2)nc1Cn1ccc(C(F)(F)F)n1` , write its Plant response rating, Morningglory.
2

Give reported Plant response rating, Morningglory value for `Cc1cnc(-c2ccc(C(F)(F)F)cc2)nc1Cn1ccc(C#N)n1`
5

Query Plant response rating, Morningglory for `Cc1cnc(-n2cnc(C(F)(F)F)n2)nc1C(=O)c1cccc(OC(F)(F)F)c1`
10

Give the reported Plant response rating, Morningglory for this compound. `Cc1cnc(-n2ccc(C(F)(F)F)n2)nc1C(=O)c1ccc(C(F)(F)F)cc1`
5

Please list Plant response rating, Morningglory recorded for the compound `Cc1cnc(-n2cnc(C(F)(F)F)n2)nc1C(=O)c1cccc(C(F)(F)F)c1`
10

Report measured Plant response rating, Morningglory; entry is `Cc1cnc(-n2ccc(C(F)(F)C(F)(F)F)n2)nc1C(=O)c1cccc(C(F)(F)F)c1`
9

Provide only the value of recorded Plant response rating, Morningglory for `Cc1cnc(-c2ccc(C(F)(F)F)cc2)nc1Cn1ccc(C(F)(F)F)n1`
10
